In this section we review reported NFκB luc, 58.59 ng/ml, w/o x linker values for a set of binders.
target: human LTBR on cells (human, UniProt P36941 31-435); test: cell-based or functional assay
Could you give me the number in RLU? Just the number is fine.

Worked examples follow.
BINDER: P1AE9459 (antibody, human IgG1, kappa, L234A L235A, V domains shown, human IgG1 PG LALA; from transgenic rabbit immunization) VH: EVQLVESGGGLVQPGGSLRLSCAASGFTFSSYTMNWVRQAPGKGLEWVSGVAPSGDRTYYTDSVKGRFTISRDNAKNTLDLQMTSLRAEDAAIYICAQGFAFTNWGQGTMVTVSS VL: DIQMTQSPSSLSASVGDRVTITCRASQGISSALAWFQQKPGKAPKRLIFDASSLDSGVPSRFSGSGSGTDFTLTISSLQPEDFATYYCQQYNNYPLTFGGGTKVEMKR
NFκB luc, 58.59 ng/ml, w/o x linker (RLU): 24700

BINDER: P1AE1873 (CBE11) (antibody, human IgG1, kappa, L234A L235A, V domains shown) VH: EVQLVESGGGLVKPGGSLRLSCAASGFTFSDYYMYWFRQAPGKGLEWVATISDGGSYTYYPDSVKGRFTISRDNAKNSLYLQMSSLRAEDTAVYYCAREENGNFYYFDYWGQGTTVTVSS VL: DIQMTQSPSSLSASVGDRVTITCKAGQDIKSYLSWYQQKPGKAPKLLIYYATRLADGVPSRFSGSGSGTDYTLTISSLQPEDFATYYCLQHGESPWTFGGGTKLEIKR
NFκB luc, 58.59 ng/ml, w/o x linker (RLU): 29300

BINDER: P1AF0080 (antibody, human IgG1, kappa, L234A L235A, V domains shown, human IgG1 PG LALA; from transgenic rabbit immunization; also called LTBR (0080)) VH: EVQLLESGGGLVQPGGSLRLSCAASGFTFSYYAMTWVRQAPGKGLEWIGVINSGGGTYYTDSVKGRFTMSRDNSKNTLYLQVNSLRAEDTAVYYCAKASTADVWGQGTTVTVSS VL: DIQMTQSPSSLSASVGDRVTITCQASQGISNYLSWYQQKPGKAPKRLIFAASSLESGVPSRFSGSGSGTDFTLTISSLQPEDFATYYCQQYNSYSLTFGGGTKLEIKR
NFκB luc, 58.59 ng/ml, w/o x linker (RLU): 16700

BINDER: P1AE9450 (antibody, human IgG1, kappa, L234A L235A, V domains shown, human IgG1 PG LALA; from transgenic rabbit immunization; also called LTBR (9450)) VH: EVQLLESGGGLVQPGGSLRLSCAASGFTVSSYVMKWFRQAPGKGLEWVSSISGSGGRPFYADSVKGRFTISRDNSKNALYLQMNSLRAEDTAVYYCANDMDVWGQGTTVTVSS VL: DIQMTQSPSSLSASVGDRVTITCRASQDISSFLKWYQQKPGKAPTLLIYAASALQSGVPSRFSGSGSGTDFTLTISSLQPEDFATYYCQQYNTYPLTFGGGTKVDIKR
NFκB luc, 58.59 ng/ml, w/o x linker (RLU): 16900

Moving on to another binder below.
[in] State its NFκB luc, 58.59 ng/ml, w/o x linker: P1AF0064 (antibody, human IgG1, kappa, L234A L235A, V domains shown, human IgG1 PG LALA constant regions; V domains from rat immunization; also called LTBR (0064)) VH: EVQLQQYGAELGKPGTSVKLSCKVSGYNIGNTYIHWVIQRPGKGLEWIGRIDPTNGNTICTEKFKNKATLTADLSSNTAYMQLSQLKSDDTAIYFCAPTTLTTPDSFAYWGQGTLVTVSS VL: DIQMTQSPSQLSASVGDRVTLSCKASQNIYKYLNWYQQKLGEAPRLLIYSTNILQTGIPSRFSGSGSGTDYTLTISSLQPEDAATYFCQKYYSGFTFGSGTKLEMKR
[out] 24400

Source of measurements: patent US20250034269A1
